# protocolText: Plasma concentration in rat at 10 mg/kg, po after 1 hr
# Type: ADME, organism-based
# Set-up: dose 10 mg/kg, route oral
assayEndpoint: concentration at 1 h (nM)

> print(dat)
                     compoundstructurestring         assayendpoint  value
 1  CNCc1cc(C#CCCN2CCOCC2)ccc1Oc1ccc(Cl)c(C(F)(F)F)c1  concentration at 1 h     53
 2  CNCc1cc(C#CCCN2CCC(F)CC2)ccc1Oc1ccc(SC)cc1  concentration at 1 h     23
 3  CNCc1cc(C#CCCN2CCOCC2)ccc1Oc1ccc(F)cc1Cl  concentration at 1 h     30
 4    CNCc1cc(C#CCCN2CCOCC2)ccc1Oc1cccc(F)c1  concentration at 1 h    110
 5   CNCc1cc(C#CCCN2CCOCC2)ccc1Oc1ccc(Cl)cc1  concentration at 1 h     68
 6  CNCc1cc(C#CCCN(C)C2CC2)ccc1Oc1ccc(SC)cc1  concentration at 1 h     39
 7     CNCc1cc(C#CCCNC2CC2)ccc1Oc1ccc(SC)cc1  concentration at 1 h     17
 8   CNCc1cc(C#CCCN2CCSCC2)ccc1Oc1ccc(SC)cc1  concentration at 1 h     45
 9   CNCc1cc(C#CCCN2CCOCC2)ccc1Oc1cccc(Cl)c1  concentration at 1 h    180
10  CNCc1cc(C#CCCN2CCOCC2)ccc1Oc1ccc(C(F)(F)F)cc1  concentration at 1 h    240
